The origin of these recorded values is ChEMBL document CHEMBL1127317.

- ASSAY REMARKS: The observed pseudo-first-order rate constant of compound for cyclization reaction at pH 2.4
- Assay type: ADME
REPORTED PROPERTY: K obs

[[record]]
smiles_code = "COc1ccc(NC(=O)Cn2ncc3cccc(N)c32)cc1"
recorded_result = "0.0084 min⁻¹"

[[record]]
smiles_code = "COc1ccc(NC(=O)CS(=O)(=O)c2c(C)cccc2N)cc1"
recorded_result = "0.0004 min⁻¹"

[[record]]
smiles_code = "Nc1ccccc1CCC(=O)Nc1cnc2ccccc2c1"
recorded_result = "0.022 min⁻¹"

[[record]]
smiles_code = "COc1ccc(N(C)C(=O)C(C)(C)c2ccccc2N)cc1"
recorded_result = "2.5 min⁻¹"

[[record]]
smiles_code = "COc1ccc(NC(=O)C(C)(C)c2ccccc2N)cc1"
recorded_result = "10 min⁻¹"

[[record]]
smiles_code = "CC(=O)c1ccc(NC(=O)C(C)(C)c2ccccc2N)cc1"
recorded_result = "21 min⁻¹"

[[record]]
smiles_code = "CCC(CC)(C(=O)Nc1ccc(OC)cc1)c1ccccc1N"
recorded_result = "1.64 min⁻¹"

[[record]]
smiles_code = "COc1ccc(NC(=O)c2c(C)nn(-c3ccccc3)c2-c2ccccc2N)cc1"
recorded_result = "0.019 min⁻¹"

[[record]]
smiles_code = "COc1ccc(NC(=O)CCc2ccccc2N)cc1"
recorded_result = "0.012 min⁻¹"

[[record]]
smiles_code = "COc1ccc(NC(=O)C(C)(C)c2ncccc2N)cc1"
recorded_result = "0.078 min⁻¹"

[[record]]
smiles_code = "COc1ccc(NC(=O)C(C)(C)c2cc(C(=O)NCCN(C)C)ccc2N)cc1"
recorded_result = "2.58 min⁻¹"

[[record]]
smiles_code = "CC(C)(C(=O)Nc1ccccc1)c1ccccc1N"
recorded_result = "21 min⁻¹"


----------
- ASSAY REMARKS: The observed pseudo-first-order rate constant of compound for cyclization reaction at pH 2.4
- Assay type: ADME
REPORTED PROPERTY: K obs (min⁻¹)

[[record]]
compound = "COc1ccc(NC(=O)Cc2ccccc2N)cc1"
units_text = "min⁻¹"
recorded_result = 0.0026

[[record]]
compound = "COc1ccc(NC(=O)C(C)c2ccccc2N)cc1 (stereo not drawn)"
units_text = "min⁻¹"
recorded_result = 0.043

[[record]]
compound = "COc1ccc(NC(=O)[C@@H]2CCCN2C(=O)c2ccccc2N)cc1"
units_text = "min⁻¹"
recorded_result = 0.0094


----------
- ASSAY REMARKS: The half-life for cyclization reaction at pH 2.4
- Format: ADME
Please use met for half-life under 40 min and not met for everything else, ties included.

[[record]]
smiles_code = "COc1ccc(NC(=O)C(C)(C)c2cc(C(=O)NCCN(C)C)ccc2N)cc1"
assigned_class = "met"

[[record]]
smiles_code = "COc1ccc(NC(=O)CS(=O)(=O)c2c(C)cccc2N)cc1"
assigned_class = "not met"

[[record]]
smiles_code = "CCC(CC)(C(=O)Nc1ccc(OC)cc1)c1ccccc1N"
assigned_class = "met"

[[record]]
smiles_code = "COc1ccc(NC(=O)c2c(C)nn(-c3ccccc3)c2-c2ccccc2N)cc1"
assigned_class = "met"

[[record]]
smiles_code = "Nc1ccccc1CC(=O)Nc1cnc2ccccc2c1"
assigned_class = "not met"

[[record]]
smiles_code = "COc1ccc(NC(=O)c2cccc3cccc(N)c23)cc1"
assigned_class = "met"


----------
- ASSAY REMARKS: The observed pseudo-first-order rate constant of compound for cyclization reaction at pH 6.8
- Type: ADME
Overview of reported K obs across a group of molecules:
REPORTED PROPERTY: K obs (min⁻¹)

[[record]]
smiles_code = "COc1ccc(NC(=O)C(C)(C)c2cc(C(=O)NCCN(C)C)ccc2N)cc1"
reported_property = "K obs"
recorded_result = 0.0009

[[record]]
smiles_code = "CC(=O)c1ccc(NC(=O)C(C)(C)c2ccccc2N)cc1"
reported_property = "K obs"
recorded_result = 0.02

[[record]]
smiles_code = "CCC(CC)(C(=O)Nc1ccc(OC)cc1)c1ccccc1N"
reported_property = "K obs"
recorded_result = 0.028

[[record]]
smiles_code = "COc1ccc(NC(=O)C(C)(C)c2ccccc2N)cc1"
reported_property = "K obs"
recorded_result = 0.0096

[[record]]
smiles_code = "COc1ccc(NC(=O)C(C)(C)c2ncccc2N)cc1"
reported_property = "K obs"
recorded_result = 0.0013

[[record]]
smiles_code = "COc1ccc(N(C)C(=O)C(C)(C)c2ccccc2N)cc1"
reported_property = "K obs"
recorded_result = 0.0009

[[record]]
smiles_code = "CN(C)c1ccc(NC(=O)C(C)(C)c2ccccc2N)cc1"
reported_property = "K obs"
recorded_result = 0.0097

[[record]]
smiles_code = "CC(C)(C(=O)Nc1ccccc1)c1ccccc1N"
reported_property = "K obs"
recorded_result = 0.02


----------
- ASSAY REMARKS: The half-life for cyclization reaction at pH 6.8
- Assay type: ADME
Note to self: use condition met only for half-life readings below 1 h; a reading exactly at 1 h still gets condition not met.

[[record]]
smiles_code = "COc1ccc(NC(=O)C(C)(C)c2cc(C(=O)NCCN(C)C)ccc2N)cc1"
assigned_class = "condition not met"

[[record]]
smiles_code = "COc1ccc(NC(=O)C(C)(C)c2ccccc2N)cc1"
assigned_class = "condition not met"

[[record]]
smiles_code = "COc1ccc(NC(=O)C(C)(C)c2ncccc2N)cc1"
assigned_class = "condition not met"

[[record]]
smiles_code = "CC(=O)c1ccc(NC(=O)C(C)(C)c2ccccc2N)cc1"
assigned_class = "condition met"

[[record]]
smiles_code = "CCC(CC)(C(=O)Nc1ccc(OC)cc1)c1ccccc1N"
assigned_class = "condition not met"

[[record]]
smiles_code = "CC(C)(C(=O)Nc1ccccc1)c1ccccc1N"
assigned_class = "condition met"

[[record]]
smiles_code = "CN(C)c1ccc(NC(=O)C(C)(C)c2ccccc2N)cc1"
assigned_class = "condition not met"

[[record]]
smiles_code = "COc1ccc(N(C)C(=O)C(C)(C)c2ccccc2N)cc1"
assigned_class = "condition not met"


----------
half-life for assorted compounds
- ASSAY REMARKS: The half-life for cyclization reaction at pH 2.4
- Type: ADME
REPORTED PROPERTY: half-life (min)

[[record]]
compound = "COc1ccc(NC(=O)C(C)c2ccccc2N)cc1 (stereo not drawn)"
reported_property = "half-life"
recorded_result = 16

[[record]]
compound = "COc1ccc(NC(=O)Cn2ncc3cccc(N)c32)cc1"
reported_property = "half-life"
recorded_result = 83

[[record]]
compound = "COc1ccc(N(C)C(=O)C(C)(C)c2ccccc2N)cc1"
reported_property = "half-life"
recorded_result = 0.28

[[record]]
compound = "COc1ccc(NC(=O)CCc2ccccc2N)cc1"
reported_property = "half-life"
recorded_result = 58

[[record]]
compound = "COc1ccc(NC(=O)Cc2ccccc2N)cc1"
reported_property = "half-life"
recorded_result = 260

[[record]]
compound = "Nc1ccccc1CCC(=O)Nc1cnc2ccccc2c1"
reported_property = "half-life"
recorded_result = 32

[[record]]
compound = "COc1ccc(NC(=O)[C@@H]2CCCN2C(=O)c2ccccc2N)cc1"
reported_property = "half-life"
recorded_result = 74

[[record]]
compound = "COc1ccc(NC(=O)C(C)(C)c2ncccc2N)cc1"
reported_property = "half-life"
recorded_result = 8.9

